Every entry's value here was drawn from ChEMBL document CHEMBL1201862.

Each item that follows carries a reported GI50.
- Tested on: OVCAR-3
- experiment-notes: NCI tumour cell line growth inhibition, 48 h
Activity calls are given as the source filed them. Cut-off read from the data, not from the text of the source: active = GI50 up to about 1.1 µM and inactive = higher.
measured-quantity: GI50

molecule=O=C(c1cccc(OCc2ccccc2)c1OCc1ccccc1)N1CCSC1=S result_value="21.1 µM (inactive)"
molecule="N#CC1(C#N)C2=C(CCCC2)NC(c2ccc(Br)cc2)C1(C#N)C#N (centres undefined)" result_value="6.56 µM (inactive)"
molecule=CC(C)[Si](Oc1cc2c3c(ccc2c(O)c1[C@@H](C)CO[Si](C)(C)C(C)(C)C)C(C)(C)CCC3)(C(C)C)C(C)C result_value="86.1 µM (inactive)"
molecule=Cc1cc(Cl)ccc1NC(=O)C(=O)Cc1nc2ccc(C(=O)c3ccccc3)cc2nc1O result_value="> 100 µM (inactive)"
molecule="COc1ccccc1C1c2cc3c(cc2OC2(OC)COC(=O)C12)OCO3 (centres undefined)" result_value="9.57 µM (inactive)"
molecule="COc1ccc(C2C(Cl)C(=O)N2NC(=O)c2ccc(N)cc2)cc1 (centres undefined)" result_value="> 100 µM (inactive)"
molecule=Cc1ccc(S(=O)(=O)n2cc(-c3cc(C(F)(F)F)ccn3)c3cc(Br)ccc32)cc1 result_value="12.2 µM (inactive)"
molecule="CN(CC(=O)N1CC(CCl)c2ccc([N+](=O)[O-])cc21)CC(=O)N1CC(CCl)c2ccc([N+](=O)[O-])cc21 (centres undefined)" result_value="74.1 µM (inactive)"
molecule=COc1ccc(CNc2nc3ccccc3nc2C(=O)O)cc1OC result_value="> 100 µM (inactive)"

###

- System: UO-31
- experiment-notes: NCI tumour cell line growth inhibition, 48 h
Activity calls are given as the source filed them. Cut-off read from the data, not from the text of the source: active = GI50 up to about 1.1 µM and inactive = higher.
Each item that follows carries a reported GI50.
measured-quantity: GI50

compound="CN1C(c2ccccc2)CC(C)(O)CC1c1ccccc1 (stereo not given)" result_value="> 100 µM (inactive)"
compound=CN(CCCNCc1ccccn1)Cc1ccccc1O result_value="3.73 µM (inactive)"
compound="CC(=O)NC(CCCCN(Cc1ccccc1)C(=O)N(CCCl)N=O)C(=O)NCc1ccccc1 (stereo not given)" result_value="34.4 µM (inactive)"
compound=CC(C)[Si](Oc1cc2c3c(ccc2c(O)c1[C@@H](C)CO[Si](C)(C)C(C)(C)C)C(C)(C)CCC3)(C(C)C)C(C)C result_value="> 100 µM (inactive)"
compound="COC1=CC2(C=CC1=O)CCNC1=C2C(=O)c2nc[nH]c2C1=O (stereo not given)" result_value="> 100 µM (inactive)"
compound="CC(=O)OCC(C)(COC(C)=O)N1C(=O)C2C3c4ccccc4C(c4ccccc43)C2C1=O (stereo not given)" result_value="> 100 µM (inactive)"
compound="CCCCCCCCCCCCCCCCOCC(COP(=O)(O)OCC1OC(n2cc(CC)c(=O)[nH]c2=O)CC1O)OC(=O)CCCCCCCCCCCCCCC (stereo not given)" result_value="> 100 µM (inactive)"
compound=Cc1ccc(/C=C2\CCC/C(=C\c3ccc(O)c(CN4CCCCC4)c3)C2=O)cc1 result_value="11.2 µM (inactive)"
compound=COc1ccc2c(c1)CCc1c(C(C)=O)c3ccccc3n1C2 result_value="11.7 µM (inactive)"
compound="COC1=C(OC)C(O)(c2ccccc2)C1=O (stereo not given)" result_value="> 100 µM (inactive)"

###

Each item that follows carries a reported GI50.
- Test system: MOLT-4
- experiment-notes: NCI tumour cell line growth inhibition, 48 h
Activity calls are given as the source filed them. No stated cut-off is given here; in the data, active = GI50 up to about 1.1 µM and inactive = higher.
measured-quantity: GI50

molecule=O=C1/C(=C/c2cccc([N+](=O)[O-])c2)CCCc2ccccc21 result_value="4.95 µM (inactive)"
molecule=CCOc1cc(NC(C)=O)ccc1C(=O)NNS(=O)(=O)c1ccc(NC(C)=O)cc1 result_value="37.2 µM (inactive)"
molecule=CCCCn1c(-c2ccc([N+](=O)[O-])cc2)cs/c1=N/N=C1\C(=O)Nc2ccc(Br)cc21 result_value="7.43 µM (inactive)"
molecule="CCCCCC1=C2C(c3ccc(OC)cc3)=C(N)C(c3ccc(OC)cc3)=C3NC(=O)C(C=C1)C32 (centres undefined)" result_value="56.4 µM (inactive)"
molecule="COc1cc(C2SCC(=O)N2c2ccc(NC(=O)c3ccc(N4C(=O)CSC4c4cc(OC)c(OC)c(OC)c4)cc3)cc2)cc(OC)c1OC (centres undefined)" result_value="34.8 µM (inactive)"
molecule=CC1=C(\C=C/C(C)=C/C=C/C(C)=C/C=C/C=C(C)\C=C\C=C(C)/C=C/C2=C(C)CCCC2(C)C)C(C)(C)CCC1 result_value="> 100 µM (inactive)"
molecule=C#CCn1c(=O)[nH]c(=O)c2cccnc21 result_value="> 100 µM (inactive)"
molecule="CC1(C)C2CCC1(CS(=O)(=O)Nc1ccccc1)C(=O)C2 (centres undefined)" result_value="> 100 µM (inactive)"
molecule=COc1ccc(-c2cc(-c3cc(F)c(Cl)cc3Cl)on2)cc1OC result_value="5.82 µM (inactive)"

###

- Test system: K562
- experiment-notes: NCI tumour cell line growth inhibition, 48 h
The source made the active and inactive calls. No stated cut-off is given here; in the data, active = GI50 up to about 1.1 µM and inactive = higher.
measured-quantity: GI50

compound=CCOC(=O)NC(C(F)(F)F)(C(F)(F)F)P(=O)(OC(C)C)OC(C)C result_value="> 100 µM (inactive)"
compound="ClC1=NN=C(c2c[nH]c3ccccc23)CC1NCc1ccccc1 (stereo not given)" result_value="> 100 µM (inactive)"
compound="COC(=O)c1ccc(C)cc1C1CN=NC12Cc1c(C)cccc1C2=O (stereo not given)" result_value="47.5 µM (inactive)"
compound=O=C1/C(=C/c2cccc([N+](=O)[O-])c2)CCCc2ccccc21 result_value="3.27 µM (inactive)"
compound=COc1ccc2c(c1)CCc1c(C(C)=O)c3ccccc3n1C2 result_value="6.37 µM (inactive)"
compound=CC1=C(\C=C/C(C)=C/C=C/C(C)=C/C=C/C=C(C)\C=C\C=C(C)/C=C/C2=C(C)CCCC2(C)C)C(C)(C)CCC1 result_value="> 100 µM (inactive)"
compound=COc1ccc(Br)c(C(=O)N2CCc3ccccc32)c1N result_value="30.2 µM (inactive)"
compound=CC(C)(C)n1c(=O)n(C(=O)C(Cl)(Cl)Cl)n(C(=O)C(Cl)(Cl)Cl)c1=O result_value="> 100 µM (inactive)"
compound=COc1ccccc1NC(=S)Nc1cccc(C)n1 result_value="> 100 µM (inactive)"
compound=O=C(Nc1cc(Cl)ccc1Cl)c1cc2cccc(Br)c2oc1=O result_value="> 100 µM (inactive)"

###

- System: UO-31
- experiment-notes: NCI tumour cell line growth inhibition, 48 h
Calls of active or inactive are those of the source. Rule as the data show it: active = GI50 up to about 1.1 µM and inactive = higher.
Each item that follows carries a reported GI50.
measured-quantity: GI50

mol=COc1ccc(-c2cc(-c3cc(F)c(Cl)cc3Cl)on2)cc1OC measured_quantity=GI50 result_value="95.9 µM (inactive)"
mol=CC[C@@H](/C=C\CCC1(C[C@H](O)CCC=C(C)C)OCCO1)O[Si](C(C)C)(C(C)C)C(C)C measured_quantity=GI50 result_value="19.2 µM (inactive)"
mol=COc1ccc(Br)c(C(=O)N2CCc3ccccc32)c1N measured_quantity=GI50 result_value="33.8 µM (inactive)"

###

- System: A498
- experiment-notes: NCI tumour cell line growth inhibition, 48 h
Activity calls are given as the source filed them. Rule as the data show it: active = GI50 up to about 1.1 µM and inactive = higher.
Each item that follows carries a reported GI50.
measured-quantity: GI50

molecule="CC(C)(C)OC(=O)NC1CCCC1C(O)(C1=CCCC1)C1=CCCC1 (stereo not given)" target_desc=A498 measured_quantity=GI50 result_value="> 100 µM (inactive)"
molecule=COc1cc(OC)c(C#N)c(OC)c1C target_desc=A498 measured_quantity=GI50 result_value="> 100 µM (inactive)"
molecule=C/C(=N\N(C)C)c1sc(-n2nc(-c3ccccc3)cc2-c2ccccc2)nc1C target_desc=A498 measured_quantity=GI50 result_value="> 100 µM (inactive)"
molecule="N=c1ccn2c(n1)OC1C(OP(=O)(O)O)C(CO)OC12 (stereo not given)" target_desc=A498 measured_quantity=GI50 result_value="10.8 µM (inactive)"
molecule=COc1cccc(CCn2c(N)c(-c3ccccc3)c3ccc([N+](=O)[O-])cc3c2=O)c1 target_desc=A498 measured_quantity=GI50 result_value="1.82 µM (inactive)"
molecule=COc1ccc(S(=O)(=O)N/N=C/C(=O)O)cc1 target_desc=A498 measured_quantity=GI50 result_value="495 µM (inactive)"
molecule=COc1ccc(C2=Nn3c(nc4sc(C)c(C)c4c3=O)SC2)cc1 target_desc=A498 measured_quantity=GI50 result_value="> 100 µM (inactive)"
molecule=O=C(N/N=C(/c1ccccc1)C(F)(F)F)c1ccncc1 target_desc=A498 measured_quantity=GI50 result_value="> 100 µM (inactive)"
molecule="CCCCC(C#N)(OP1(=O)OC(c2ccccc2)C(C)N1C)c1ccccc1 (stereo not given)" target_desc=A498 measured_quantity=GI50 result_value="18.9 µM (inactive)"
molecule=O=C(OCc1ccccc1CN1CCOCC1)c1ccc(Br)cc1 target_desc=A498 measured_quantity=GI50 result_value="> 100 µM (inactive)"
molecule=COc1ccc2c3ccc4c(c3n(C)c2c1)C(=O)C=CC4=O target_desc=A498 measured_quantity=GI50 result_value="> 100 µM (inactive)"
molecule=C#CCn1c(=O)ccn(/C(=C/C(=O)OCC)C(=O)OCC)c1=O target_desc=A498 measured_quantity=GI50 result_value="15.1 µM (inactive)"
molecule=Oc1cc(-c2ccc(F)cc2)nc2ncccc12 target_desc=A498 measured_quantity=GI50 result_value="87.3 µM (inactive)"
molecule="O=C(O)C1C2OC(C(Br)C2Br)C1C(=O)O (stereo not given)" target_desc=A498 measured_quantity=GI50 result_value="> 100 µM (inactive)"
molecule="CCP(=O)(OC)C1=CCN(C(=O)OCC[Si](C)(C)C)CC1 (stereo not given)" target_desc=A498 measured_quantity=GI50 result_value="> 100 µM (inactive)"
molecule=Cc1nc2ccc(Cl)cc2c(-n2ccnc2)c1CCn1ccnc1 target_desc=A498 measured_quantity=GI50 result_value="21.5 µM (inactive)"
molecule=CCn1cc(C(=O)O)c(=O)c2cc(F)c(N3CCN(CN4C(=O)/C(=N\c5ncc(Cc6cc(OC)c(OC)c(OC)c6)c(N)n5)c5cc(Cl)ccc54)CC3)cc21 target_desc=A498 measured_quantity=GI50 result_value="> 100 µM (inactive)"
molecule=COc1cc(S(=O)(=O)Nc2ccc(-c3csc(/N=C\c4ccccc4)n3)cc2)ccc1Cl target_desc=A498 measured_quantity=GI50 result_value="37.5 µM (inactive)"
molecule=CCCCCCCCCCCC(=O)OC[C@H](C[As](=O)(O)O)OC(=O)CCCCCCCCCCC target_desc=A498 measured_quantity=GI50 result_value="6.31 µM (inactive)"
molecule=N#CCCN(c1ccc(/C=C2\N=C(Cc3ccccc3)OC2=O)cc1)S(=O)(=O)c1ccccc1 target_desc=A498 measured_quantity=GI50 result_value="> 100 µM (inactive)"
